System: IFNγ-induced NO production in RAW 264.7 cells
EXPERIMENT DESCRIPTION: Nitric Oxide Suppression Assay (IFNγ-induced NO, Griess nitrite readout)
Assay type: cell-based, mouse
EXPERIMENTAL CONDITIONS: Table 2; ratio to RTA402
EXPERIMENTAL ENDPOINT: Avg NO IC50 Relative to RTA402 (fold)
Give bare numbers, in fold.

INSERT INTO measurements (compound_smiles, target_entity, scale_unit, experimental_result) VALUES
  ('C[C@@H]1[C@H]2[C@H]3C(=O)C=C4[C@@]5(C)C=C(C#N)C(=O)C(C)(C)[C@@H]5CC[C@@]4(C)[C@]3(C)CC[C@@]2(CN2CCCC2=O)CC[C@H]1C', 'IFNγ-induced NO production in RAW 264.7 cells', 'fold', 1.99);

For each of the compounds below, note its Avg NO IC50 Relative to RTA402 (fold).
1. C[C@@H]1[C@H]2[C@H]3C(=O)C=C4[C@@]5(C)C=C(C#N)C(=O)C(C)(C)[C@@H]5CC[C@@]4(C)[C@]3(C)CC[C@@]2(CN2CCOC2=O)CC[C@H]1C
2. C[C@@H]1[C@H]2[C@H]3C(=O)C=C4[C@@]5(C)C=C(C#N)C(=O)C(C)(C)[C@@H]5CC[C@@]4(C)[C@]3(C)CC[C@@]2(C=O)CC[C@H]1C
3. C[C@@H]1[C@H]2[C@H]3C(=O)C=C4[C@@]5(C)C=C(C#N)C(=O)C(C)(C)[C@@H]5CC[C@@]4(C)[C@]3(C)CC[C@@]2(n2cc(Br)cn2)CC[C@H]1C
4. C[C@@H]1[C@H]2[C@H]3C(=O)C=C4[C@@]5(C)C=C(C#N)C(=O)C(C)(C)[C@@H]5CC[C@@]4(C)[C@]3(C)CC[C@@]2(CCC(=O)NC2CC2)CC[C@H]1C

(A)
1.79
2.75
23.3
0.92

Entry `C[C@@H]1[C@H]2[C@H]3C(=O)C=C4[C@@]5(C)C=C(C#N)C(=O)C(C)(C)[C@@H]5CC[C@@]4(C)[C@]3(C)CC[C@@]2(CN2CCOC2)CC[C@H]1C` ; Avg NO IC50 Relative to RTA402 (fold) = 14.80

====

Test system: Nrf2 / ARE-dependent luciferase in AREc32 reporter cell line
EXPERIMENT DESCRIPTION: AREc32 luciferase reporter activation (Nrf2 induction)
Type: cell-based, human
EXPERIMENTAL CONDITIONS: Table 2; ratio to RTA402
EXPERIMENTAL ENDPOINT: Relative Avg AREc32 EC2X Relative to RTA402 (fold)
Give bare numbers, in fold.

INSERT INTO assay_data (compound_smiles, experimental_result) VALUES
  ('COC(=O)[C@]12CC[C@@H](C)[C@H](C)[C@H]1[C@H]1C(=O)C[C@@H]3[C@@]4(C)C=C(C#N)C(=O)C(C)(C)[C@@H]4CC[C@@]3(C)[C@]1(C)CC2', 15.8);

For each of the molecules below, note its Relative Avg AREc32 EC2X Relative to RTA402 (fold).
1. C[C@@H]1[C@H]2[C@H]3C(=O)C=C4[C@@]5(C)C=C(C#N)C(=O)C(C)(C)[C@@H]5CC[C@@]4(C)[C@]3(C)CC[C@@]2(CO)CC[C@H]1C
2. C[C@@H]1[C@H]2[C@H]3C(=O)C=C4[C@@]5(C)C=C(C#N)C(=O)C(C)(C)[C@@H]5CC[C@@]4(C)[C@]3(C)CC[C@@]2(n2cc(Br)cn2)CC[C@H]1C
3. C[C@@H]1[C@H]2[C@H]3[C@H]4C[C@@H]5[C@@]6(C)C=C(C#N)C(=O)C(C)(C)[C@@H]6CC[C@@]5(C)[C@]3(C)CC[C@]2(CC[C@H]1C)C(=O)O4

(A)
0.358
6.8
31.2
